# Assay Target: hGIPR (Homo sapiens)
# Sequence (P48546 22-466): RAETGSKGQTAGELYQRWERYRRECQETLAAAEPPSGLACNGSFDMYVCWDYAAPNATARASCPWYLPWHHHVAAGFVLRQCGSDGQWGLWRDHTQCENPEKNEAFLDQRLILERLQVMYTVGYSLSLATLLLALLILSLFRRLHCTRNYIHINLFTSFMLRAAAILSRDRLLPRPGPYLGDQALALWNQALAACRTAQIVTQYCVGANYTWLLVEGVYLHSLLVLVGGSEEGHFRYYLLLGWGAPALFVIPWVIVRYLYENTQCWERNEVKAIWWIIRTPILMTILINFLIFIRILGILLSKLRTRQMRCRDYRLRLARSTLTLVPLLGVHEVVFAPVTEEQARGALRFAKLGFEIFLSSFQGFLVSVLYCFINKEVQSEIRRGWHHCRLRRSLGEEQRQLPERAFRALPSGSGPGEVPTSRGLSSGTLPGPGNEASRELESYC
# Test: Functional cAMP activity in the presence of 1% HSA
# Format: cell-based
# Settings: read-out: cAMP Rel EC50, hGIPR
Starred links: 1 amine or outer side, 2 acyl side, 3 side chain; linkers in the order of their positions; H or OH if unused. Non-standard residues stand in square brackets, D forms with d. Groups on a side chain read outwards from the residue. No end group written: not given here. *: point of attachment. C20 diacid = O=C(O)CCCCCCCCCCCCCCCCCCC(=O)*; C18 diacid = O=C(O)CCCCCCCCCCCCCCCCC(=O)*; αMePhe(2-F) = C[C@](N)(Cc1ccccc1F)C(=O)O; γGlu = O=C(O)[C@H](CCC(=O)[*:2])N[*:1]; αMe4Pal = C[C@](N)(Cc1ccncc1)C(=O)O; αMeY = C[C@](N)(Cc1ccc(O)cc1)C(=O)O; 4Pal = N[C@@H](Cc1ccncc1)C(=O)O; αMeL = CC(C)C[C@](C)(N)C(=O)O; αMeS = C[C@](N)(CO)C(=O)O; Orn = NCCC[C@H](N)C(=O)O; AEEA = NCCOCCOCC(=O)O; Aib = CC(C)(N)C(=O)O
Endpoint: EC50 (µM)

Substance	Endpoint	Unit Of Measurement	Reported Measurement
H-Y[Aib]QGT[αMePhe(2-F)]TSDY[αMeS]I[αMeL]LD[Orn]K([AEEA-γGlu-C18 diacid])AQ[Aib][Orn]FI[dE][αMeY]LEEGGPSSGEPPPEEG-NH2 [Example 403]	EC50	µM	0.0369
H-Y[Aib]QGTFTSDFS[Orn][αMeL]LDKK([AEEA-γGlu-C18 diacid])AQ[Aib]AFIEYLLEGGPSSGAPPPGG[4Pal]-NH2 [Example 261]	EC50	µM	0.0384
H-Y[Aib]QGTFTSD[4Pal]SR[αMeL]LDKK([AEEA-γGlu-C18 diacid])AQ[Aib]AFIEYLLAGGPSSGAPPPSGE-NH2 [Example 113]	EC50	µM	0.0323
H-Y[Aib]QGTFTSD[4Pal]SQ[αMeL]LDKK([AEEA-γGlu-C18 diacid])AQ[αMe4Pal]AFIEYLIE[Aib]GPSSGAPPPEGS-NH2 [Example 851]	EC50	µM	0.0244
Y[Aib]QGTFTSD[4Pal]SQ[αMeL]LD[Orn]K([AEEA-γGlu-C18 diacid])AQ[αMe4Pal]AFIE[αMeY]LLEGGPSSGAPPPSGS-NH2 [Example 932]	EC50	µM	0.025
Y[Aib]QGT[αMePhe(2-F)]TSDYSILLDAQAAK([AEEA-γGlu-C20 diacid])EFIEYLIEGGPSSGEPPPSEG-NH2 [Example 351]	EC50	µM	0.0575

* * *

# Assay Target: human GcgR (Homo sapiens)
# Sequence (P47871 26-477): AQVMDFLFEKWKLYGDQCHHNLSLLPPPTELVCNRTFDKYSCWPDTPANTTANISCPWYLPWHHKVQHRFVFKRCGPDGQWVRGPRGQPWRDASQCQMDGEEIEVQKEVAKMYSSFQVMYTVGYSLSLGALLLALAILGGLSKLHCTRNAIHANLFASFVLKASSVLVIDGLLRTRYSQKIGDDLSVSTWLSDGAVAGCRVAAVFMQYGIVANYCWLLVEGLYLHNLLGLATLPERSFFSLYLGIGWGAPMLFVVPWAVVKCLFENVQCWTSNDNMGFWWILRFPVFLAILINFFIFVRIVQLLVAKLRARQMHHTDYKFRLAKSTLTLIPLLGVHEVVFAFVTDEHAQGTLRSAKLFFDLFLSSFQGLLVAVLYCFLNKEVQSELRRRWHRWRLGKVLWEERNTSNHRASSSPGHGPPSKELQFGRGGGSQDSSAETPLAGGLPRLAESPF
# Test: Functional cAMP activity in the presence of 1% HSA
# Assay type: cell-based
# Settings: read-out: cAMP Rel EC50, hGcgR
Starred links: 1 amine or outer side, 2 acyl side, 3 side chain; linkers in the order of their positions; H or OH if unused. Non-standard residues stand in square brackets, D forms with d. Groups on a side chain read outwards from the residue. No end group written: not given here. *: point of attachment. C18 diacid = O=C(O)CCCCCCCCCCCCCCCCC(=O)*; αMePhe(2-F) = C[C@](N)(Cc1ccccc1F)C(=O)O; γGlu = O=C(O)[C@H](CCC(=O)[*:2])N[*:1]; αMe4Pal = C[C@](N)(Cc1ccncc1)C(=O)O; αMeY = C[C@](N)(Cc1ccc(O)cc1)C(=O)O; 4Pal = N[C@@H](Cc1ccncc1)C(=O)O; αMeL = CC(C)C[C@](C)(N)C(=O)O; αMeS = C[C@](N)(CO)C(=O)O; Orn = NCCC[C@H](N)C(=O)O; AEEA = NCCOCCOCC(=O)O; Aib = CC(C)(N)C(=O)O
Rule: EC50 below 500 nM gives Criterion met. Equal to or above 500 nM gives Criterion not met.

Substance	Class Name
H-Y[Aib]QGTFTSD[4Pal]SQ[αMeL]LD[Orn]K([AEEA-γGlu-C18 diacid])AQ[αMe4Pal]AFIE[αMeY]LIE[Aib]GPSSGAPPPSGSEE-NH2 [Example 1108]	Criterion met
H-Y[Aib]QGTFTSDFS[Orn][αMeL]LDKK([AEEA-γGlu-C18 diacid])AQ[Aib]AFIEWLLEGGSSSGAPPPGGT-NH2 [Example 272]	Criterion not met
H-Y[Aib]QGTFTSDFS[Orn][αMeL]LDKK([AEEA-γGlu-C18 diacid])AQ[Aib]AFIEWLLEGGESSGEPPPSGE-NH2 [Example 123]	Criterion not met
H-Y[Aib]QGTFTSDFS[Orn][αMeL]LDKK([AEEA-γGlu-C18 diacid])AQ[Aib]AFIEWLLEGGPSSGAPPPEGS-NH2 [Example 121]	Criterion met
H-Y[Aib]QGT[αMePhe(2-F)]TSD[4Pal][αMeS]I[αMeL]LD[Orn]K([γGlu-γGlu-C18 diacid])AQ[αMe4Pal]EFI[dE][αMeY]LVEGGPSSGEPPPSGE-NH2 [Example 1161]	Criterion met
H-Y[Aib]QGTFTSD[4Pal]SQ[αMeL]LDKK([Glu-γGlu-C18 diacid])AQ[αMe4Pal]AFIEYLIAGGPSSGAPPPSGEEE-NH2 [Example 1089]	Criterion not met
Y[Aib]QGT[αMePhe(2-F)]TSD[4Pal][αMeS]I[αMeL]LD[Orn]K([γGlu-γGlu-C18 diacid])AQ[Aib][Orn]FI[dE][αMeY]LTEGGPSSGEPPPEGTEE-NH2 [Example 597]	Criterion met
H-Y[Aib]QGTFTSD[4Pal]S[Orn][αMeL]LD[Orn]K([γGlu-γGlu-C18 diacid])AQ[αMe4Pal]QFIEYLLAGGPSSGAPPPSGSEE-NH2 [Example 1002]	Criterion met
H-Y[Aib]QGT[αMePhe(2-F)]TSD[4Pal]SI[αMeL]LD[Orn]K([AEEA-γGlu-C18 diacid])AQ[αMe4Pal][Orn]FI[dE][αMeY]LIEGGPSSGEPPPEGTGE-NH2 [Example 680]	Criterion met
H-Y[Aib]QGTFTSDYSR[αMeL]LDKK([AEEA-γGlu-C18 diacid])AQ[Aib]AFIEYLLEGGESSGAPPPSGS-NH2 [Example 361]	Criterion not met
H-Y[Aib]QGTFTSD[4Pal]SQ[αMeL]LDKK([γGlu-AEEA-γGlu-C18 diacid])AQ[αMe4Pal]AFIEYLIE[Aib]GPSSGAPPPSGS-NH2 [Example 861]	Criterion not met

* * *

# Assay Target: hGLP-1R (Homo sapiens)
# Sequence (P43220 24-463): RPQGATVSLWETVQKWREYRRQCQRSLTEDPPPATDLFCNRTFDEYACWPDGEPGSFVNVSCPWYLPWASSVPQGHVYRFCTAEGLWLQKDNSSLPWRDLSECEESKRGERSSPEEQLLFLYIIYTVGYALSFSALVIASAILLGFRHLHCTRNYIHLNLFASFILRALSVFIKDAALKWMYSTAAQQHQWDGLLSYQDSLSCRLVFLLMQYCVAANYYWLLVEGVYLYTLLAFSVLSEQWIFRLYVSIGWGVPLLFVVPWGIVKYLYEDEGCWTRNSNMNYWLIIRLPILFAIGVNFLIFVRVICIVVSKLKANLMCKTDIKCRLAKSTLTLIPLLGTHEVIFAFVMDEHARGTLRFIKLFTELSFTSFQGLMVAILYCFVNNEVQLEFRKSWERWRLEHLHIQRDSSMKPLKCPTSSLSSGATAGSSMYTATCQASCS
# Test: Functional cAMP activation in the presence of 0.1% casein (no HSA);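 further: intracellular cAMP rise after 30 min at 37 °C read by HTRF, normalized between buffer only (0%) and maximal control ligand (100%), four-parameter variable-slope fit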
# Assay type: cell-based
# Settings: in the presence of 0.1% casein (no HSA); geometric mean; read-out: Relative cAMP EC50, hGLP-1R
Starred links: 1 amine or outer side, 2 acyl side, 3 side chain; linkers in the order of their positions; H or OH if unused. Non-standard residues stand in square brackets, D forms with d. Groups on a side chain read outwards from the residue. *: point of attachment. C18 diacid = O=C(O)CCCCCCCCCCCCCCCCC(=O)*; γGlu = O=C(O)[C@H](CCC(=O)[*:2])N[*:1]; αMe4Pal = C[C@](N)(Cc1ccncc1)C(=O)O; αMeY = C[C@](N)(Cc1ccc(O)cc1)C(=O)O; αMeF = C[C@](N)(Cc1ccccc1)C(=O)O; 4Pal = N[C@@H](Cc1ccncc1)C(=O)O; αMeL = CC(C)C[C@](C)(N)C(=O)O; αMeS = C[C@](N)(CO)C(=O)O; Orn = NCCC[C@H](N)C(=O)O; AEEA = NCCOCCOCC(=O)O; Aib = CC(C)(N)C(=O)O
Rule: EC50 below 3 nM gives rule met. Equal to or above 3 nM gives rule not met.

Substance	Class Name
H-Y[Aib]QGTFTSD[4Pal]SQ[αMeL]LDKK([γGlu-γGlu-C18 diacid])AQ[αMe4Pal]AFIEYLIE[Aib]GPSSGAPPPSGE-NH2 [Example 882]	rule met
H-Y[Aib]QGTFTSDFS[Orn][αMeL]LDKK([AEEA-γGlu-C18 diacid])AQ[Aib]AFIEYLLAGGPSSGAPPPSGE[AEEA]-NH2 [Example 91]	rule not met
H-Y[Aib]QGTFTSDFS[Orn][αMeL]LDKK([AEEA-γGlu-C18 diacid])AQ[Aib]AFIEWLLEGGHSSGAPPPSGS-NH2 [Example 170]	rule not met
H-Y[Aib]QGTFTSDFS[Orn][αMeL]LDKK([AEEA-γGlu-C18 diacid])AQ[Aib]AFIEYLLEGGHSSGEPPPGGS-NH2 [Example 164]	rule not met
H-Y[Aib]QGT[αMeF]TSD[4Pal][αMeS]I[αMeL]LD[Orn]K([γGlu-γGlu-C18 diacid])AQ[αMe4Pal]EFI[dE][αMeY]LIEGGPSSGAPPPSGSE-NH2 [Example 1172]	rule met
